Recorded measurements of hemolysis at 30 min, 10 µg/mL, one per entry
ASSAY_COMMENT: Hemolysis assay
Type: cell-based, human
CONDITIONS: human, washed human red blood cells, Hemolysis (%), 10 µg/mL, 30 min, 37 °C

{"columns": ["SMILES_DATA", "hemolysis at 30 min, 10 µg/mL"],
 "data": [
  ["CC1(C)C2CC[C@@]1(C)C(=O)/C2=C/c1cccs1", "6.36%"],
  ["CC1(C)C2CC[C@]1(C)C(=O)/C2=C/c1ccsc1", "0%"],
  ["CC1(C)C2CC[C@@]1(C)C(=O)/C2=C/c1ccoc1", "0%"],
  ["CC1(C)C2CC[C@@]1(C)C(=O)/C2=C/c1cc2ccccc2o1", "0%"],
  ["CC1(C)C2CC[C@]1(C)C(=O)/C2=C/c1cc2ccccc2o1", "2.01%"]
]}

====

Test system: HT-29 (human colorectal adenocarcinoma)
ASSAY_COMMENT: SRB cytotoxicity assay, HT-29 cells
Format: cell-based
CONDITIONS: read-out: IC50 HT-29; SRB, 72 h treatment, mean ± SD

{"columns": ["MOLECULE", "IC50"],
 "data": [
  ["CC12CCC(CC1=O)C2(C)C (stereo not shown) [Compound 2, camphor, reference compound]", "> 100 µM"]
]}

====

Test system: AGS (human gastric adenocarcinoma)
ASSAY_COMMENT: SRB cytotoxicity assay, AGS cells
Format: cell-based
CONDITIONS: read-out: IC50 AGS; SRB, 72 h treatment, mean ± SD

{"columns": ["COMPOUND", "IC50"],
 "data": [
  ["CC12CCC(CC1=O)C2(C)C (stereo not shown) [Compound 2, camphor, reference compound]", "> 100 µM"]
]}

====

ASSAY_COMMENT: Hemolysis assay
Format: cell-based, human
CONDITIONS: human, washed human red blood cells, Hemolysis (%), 50 µg/mL, 30 min, 37 °C
RECORDED_ENDPOINT: hemolysis at 30 min, 50 µg/mL (%)

{"columns": ["SMILES_DATA", "RECORDED_ENDPOINT", "NUMERIC_READOUT"],
 "data": [
  ["CC1(C)C2CC[C@]1(C)C(=O)/C2=C/c1cccs1", "hemolysis at 30 min, 50 µg/mL", 1.1],
  ["CC1(C)C2CC[C@@]1(C)C(=O)/C2=C/c1ccsc1", "hemolysis at 30 min, 50 µg/mL", 7.92],
  ["CC1(C)C2CC[C@]1(C)C(=O)/C2=C/c1cc2ccccc2o1", "hemolysis at 30 min, 50 µg/mL", 6.36],
  ["CC1(C)C2CC[C@@]1(C)C(=O)/C2=C/c1cc2ccccc2o1", "hemolysis at 30 min, 50 µg/mL", 3.12],
  ["CC1(C)C2CC[C@@]1(C)C(=O)/C2=C/c1ccco1", "hemolysis at 30 min, 50 µg/mL", 20.1]
]}

====

ASSAY_COMMENT: Hemolysis assay
Type: cell-based, human
CONDITIONS: human, washed human red blood cells, Hemolysis (%), 100 µg/mL, 30 min, 37 °C
Note to self: use criterion met only for hemolysis at 30 min, 100 µg/mL readings below 9%; a reading exactly at 9% still gets criterion not met.

{"columns": ["COMPOUND", "GROUP"],
 "data": [
  ["CC1(C)C2CC[C@@]1(C)C(=O)/C2=C/c1ccoc1 [Compound 8]", "criterion met"],
  ["CC1(C)C2CC[C@@]1(C)C(=O)/C2=C/c1ccco1 [Compound 4]", "criterion not met"],
  ["CC1(C)C2CC[C@]1(C)C(=O)/C2=C/c1ccsc1 [Compound 11]", "criterion met"],
  ["CC1(C)C2CC[C@]1(C)C(=O)/C2=C/c1cccs1 [Compound 5]", "criterion met"],
  ["CC1(C)C2CC[C@]1(C)C(=O)/C2=C/c1ccco1 [Compound 3]", "criterion not met"],
  ["CC1(C)C2CC[C@]1(C)C(=O)/C2=C/c1cc2ccccc2o1 [Compound 9]", "criterion met"],
  ["CC1(C)C2CC[C@@]1(C)C(=O)/C2=C/c1cc2ccccc2o1 [Compound 10]", "criterion met"],
  ["CC1(C)C2CC[C@@]1(C)C(=O)/C2=C/c1ccsc1 [Compound 12]", "criterion not met"],
  ["CC1(C)C2CC[C@@]1(C)C(=O)/C2=C/c1cccs1 [Compound 6]", "criterion not met"],
  ["CC1(C)C2CC[C@]1(C)C(=O)/C2=C/c1ccoc1 [Compound 7]", "criterion met"]
]}
